This collection of values is drawn from paper PMC11701221.

- target-or-test-system: Mgal-WhiA (Mycoplasma gallisepticum S6, UniProt A0A0F6CKV5 1-295)
- assay-text: MST; 1 mM ATP; multistep curve, conflicts with EMSA; EMSA: 20 mM carbonate pH 9.8, 6% glycerol, 37 C 10 min, gel at 10 C; MST: PBS (10 mM Na phosphate pH 7.4, 140 mM NaCl, 3 mM KCl), 0.05% Tween-20, 50 mM imidazole, 50 nM duplex, 20 C
- test-context: protein: recombinant; label: 5' FAM (EMSA) or HEX (MST) on strand 1; blunt
measured-parameter: Kd (nM)
Kindly answer with a numeric value in nM, unit omitted.

Would you kindly share the measured Kd for Negative control (plsC promoter) (dsDNA) DNA 1: AGCGATAAGTTTTACGAATTAAGTCGTTTATTATATAATA DNA 2: TATTATATAATAAACGACTTAATTCGTAAAACTTATCGCT ? 120
